- System: IC-GPCR2 (Homo sapiens, UniProt Q8TDV5)
- Construct: expressed in transfected cells
- Sequence (Q8TDV5 whole entry S309L): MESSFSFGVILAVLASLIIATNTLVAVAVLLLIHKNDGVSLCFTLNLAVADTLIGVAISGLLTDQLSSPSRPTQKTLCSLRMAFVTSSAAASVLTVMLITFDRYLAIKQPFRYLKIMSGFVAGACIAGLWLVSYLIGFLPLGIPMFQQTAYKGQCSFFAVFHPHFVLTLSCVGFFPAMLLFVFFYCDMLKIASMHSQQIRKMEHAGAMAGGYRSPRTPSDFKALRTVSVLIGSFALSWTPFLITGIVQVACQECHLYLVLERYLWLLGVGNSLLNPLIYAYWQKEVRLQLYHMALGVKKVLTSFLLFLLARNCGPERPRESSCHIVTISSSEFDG
- Test Protocol: Stimulation of cAMP in CHO cell line stably expressing IC-GPCR2 (HTRF cAMP dynamic kit)
- Assay type: cell-based
- Setup Conditions: 3 μM compound; relative to maximal activity of 5-Ethyl-2-{4-[4-(4-tetrazol-1-yl-phenoxymethyl)-thiazol-2-yl]-piperidin-1-yl}-pyrimidine (=100%); IC-GPCR2 stably expressing CHO cells, 30 minutes; 3 µM
- Description: This assay was developed using a stable cell line expressing IC-GPCR-2, generated as follows. […] To measure cAMP activity in response to IC-GPCR2 agonist, the clones were plated in 96 well plates at 17500 cells per well. On the day after plating, cells were incubated with the IC-CPCR2 agonist at […] for 30 minutes in Ham's F12 Media (Gibco) with 0.04% DMSO. cAMP was measured using the cAMP dynamic kit from C is Bio (Bedford, Mass.) according to the manufacturers instructions. […]
Parameter % activity at 3 μM: see the listing below.
Measured Metric: % activity at 3 μM (%)

>>> print(df.to_string())
                                   compound                                   system  unit_string  test_value
0  Fc1cnc(N2C3CCC2CC(n2ncc(COc4ccc(-n5cnnn5)nc4)n2)C3)nc1 (stereo not shown) [Example 75]  IC-GPCR2 (Homo sapiens, UniProt Q8TDV5)            %       47.94
1  CC(C)(C)OC(=O)N1C2CCC1CC(n1ncc(COc3ccc(-n4cnnn4)nc3)n1)C2 (stereo not shown) [Example 73]  IC-GPCR2 (Homo sapiens, UniProt Q8TDV5)            %       84.07
2  CC(C)(C)OC(=O)N1C2CCC1CC(n1ncc(COc3ccc(-n4cnnn4)nc3)n1)C2 (stereo not shown) [Example 72]  IC-GPCR2 (Homo sapiens, UniProt Q8TDV5)            %       60.55
3  Fc1cnc(N2C3CCC2CC(n2ncc(COc4ccc(-n5cnnn5)nc4)n2)C3)nc1 (stereo not shown) [Example 74]  IC-GPCR2 (Homo sapiens, UniProt Q8TDV5)            %       61.88

----------
- System: IC-GPCR2 (Homo sapiens, UniProt Q8TDV5)
- Construct: expressed in transfected cells
- Test Protocol: Stimulation of cAMP in CHO cell line stably expressing IC-GPCR2 (HTRF cAMP dynamic kit)
- Type: cell-based
- Setup Conditions: 3 μM compound; relative to maximal activity of 5-Ethyl-2-{4-[4-(4-tetrazol-1-yl-phenoxymethyl)-thiazol-2-yl]-piperidin-1-yl}-pyrimidine (=100%); IC-GPCR2 stably expressing CHO cells, 30 minutes
- Description: This assay was developed using a stable cell line expressing IC-GPCR-2, generated as follows. […] To measure cAMP activity in response to IC-GPCR2 agonist, the clones were plated in 96 well plates at 17500 cells per well. On the day after plating, cells were incubated with the IC-CPCR2 agonist at […] for 30 minutes in Ham's F12 Media (Gibco) with 0.04% DMSO. cAMP was measured using the cAMP dynamic kit from C is Bio (Bedford, Mass.) according to the manufacturers instructions. […]
Structures can show the parent of a compound that is named as a salt.
Decide using % activity at 3 μM: a value greater than or equal to 60% is 1.0, a smaller one is 0.0.

>>> print(df.to_string())
                                   compound  class_label
0  C=CCOC(=O)N1CCC(n2ncc(COc3ccc(-n4cnnn4)nc3)n2)CC1          1.0
1  CC(C)(C)OC(=O)N1CCC(n2cc(COc3ccc(S(C)(=O)=O)cc3)nn2)CC1          1.0
2  C[C@H](NC(=O)OC(C)(C)C)C(=O)N1CCC(n2ncc(COc3ccc(-n4cnnn4)nc3)n2)CC1          0.0
3  CS(=O)(=O)c1ccc(OCc2cnn(C3CCN(c4ncc(Cl)cn4)CC3)n2)cc1          0.0
4  FC(F)(F)c1cnc(N2CCC(n3ncc(COc4ccc(-n5cnnn5)nc4)n3)CC2)nc1          1.0
5  O=C(CC1CCNCC1)N1CCC(n2ncc(COc3ccc(-n4cnnn4)nc3)n2)CC1 [Example 51, hydrochloride]          0.0
6  CC1CN(c2ncc(C(F)(F)F)cn2)CCC1n1ncc(COc2ccc(-n3cnnn3)nc2)n1 (centres unmarked)          1.0
7  Clc1cnc(N2CCC(n3ncc(COc4ccc(-n5cncn5)cc4)n3)CC2)nc1          0.0

----------
Parameter % activity at 3 μM: see the listing below.
- System: IC-GPCR2 (Homo sapiens, UniProt Q8TDV5)
- Construct: expressed in transfected cells
- Test Protocol: Stimulation of cAMP in CHO cell line stably expressing IC-GPCR2 (HTRF cAMP dynamic kit)
- Format: cell-based
- Setup Conditions: 3 μM compound; relative to maximal activity of 5-Ethyl-2-{4-[4-(4-tetrazol-1-yl-phenoxymethyl)-thiazol-2-yl]-piperidin-1-yl}-pyrimidine (=100%); IC-GPCR2 stably expressing CHO cells, 30 minutes
Measured Metric: % activity at 3 μM (%)

>>> print(df.to_string())
                            compound_smiles     measured_metric  test_value
0  CC(C)OC(=O)N1CCC(n2ncc(COc3ccc(-n4cnnn4)cc3F)n2)CC1  % activity at 3 μM       62.88
1  O=S(=O)(Cc1ccccc1)N1CCC(n2ncc(COc3ccc(-n4cnnn4)nc3)n2)CC1  % activity at 3 μM       74.90
2  O=C(c1ncc(Br)cn1)N1CCC(n2ncc(COc3ccc(-n4cnnn4)nc3)n2)CC1  % activity at 3 μM       32.06
3  Cc1cc(-n2cnnn2)ccc1OCc1cnn(C2CCN(c3ncc(Cl)cn3)CC2)n1  % activity at 3 μM       48.60

----------
Parameter % activity at 3 μM: see the listing below.
- System: IC-GPCR2 (Homo sapiens, UniProt Q8TDV5)
- Construct: expressed in transfected cells
- Test Protocol: Stimulation of cAMP in CHO cell line stably expressing IC-GPCR2 (HTRF cAMP dynamic kit)
- Type: cell-based
- Setup Conditions: 3 μM compound; relative to maximal activity of 5-Ethyl-2-{4-[4-(4-tetrazol-1-yl-phenoxymethyl)-thiazol-2-yl]-piperidin-1-yl}-pyrimidine (=100%); IC-GPCR2 stably expressing CHO cells, 30 minutes
Measured Metric: % activity at 3 μM

                            compound_smiles  test_value
0  CC(C)OC(=O)N1CCC(n2ncc(COc3ccc(S(C)(=O)=O)cc3F)n2)CC1      70.06%
1  CC(C)(C)OC(=O)N1CCC(n2ccc(COc3ccc(-n4cnnn4)cc3F)n2)CC1      79.51%
2  COc1ccc(-c2cnc(N3CCC(n4ncc(COc5ccc(-n6cnnn6)nc5)n4)CC3)nc2)cc1      77.53%
3  CC(C)(C)OC(=O)N[C@H](CC(=O)N1CCC(n2ncc(COc3ccc(-n4cnnn4)nc3)n2)CC1)Cc1cc(F)c(F)cc1F       7.31%

----------
Parameter % activity at 3 μM: see the listing below.
- System: IC-GPCR2 (Homo sapiens)
- Construct: expressed in transfected cells
- Test Protocol: Stimulation of cAMP in CHO cell line stably expressing IC-GPCR2 (HTRF cAMP dynamic kit)
- Type: cell-based
- Setup Conditions: 3 μM compound; relative to maximal activity of 5-Ethyl-2-{4-[4-(4-tetrazol-1-yl-phenoxymethyl)-thiazol-2-yl]-piperidin-1-yl}-pyrimidine (=100%); IC-GPCR2 stably expressing CHO cells, 30 minutes
Measured Metric: % activity at 3 μM (%)

>>> df
                                    compound  test_value
 0  CC1CC(n2ncc(COc3ccc(-n4cnnn4)cc3F)n2)CCN1c1ncc(Cl)cn1 (centres unmarked) [Example 69]       55.22
 1  Cc1sc(OCc2cnn(C3CCN(c4ncc(Cl)cn4)CC3)n2)nc1-c1cccnc1 [Example 90]       13.60
 2  CCc1cnc(N2CCC(n3ncc(COc4ccc(S(C)(=O)=O)cc4F)n3)CC2)nc1 [Example 10]       71.04
 3  CC(C)COC(=O)N1CCC(n2ncc(COc3ccc(S(C)(=O)=O)cc3F)n2)CC1 [Example 103]       51.30
 4  Clc1cnc(N2CCC(n3ncc(COc4ccc(-n5ccnc5)cc4)n3)CC2)nc1 [Example 94]       49.73
 5  CC(C)(C)OC(=O)N1CCC(n2ncc(COc3ccc(-n4cnnn4)cc3)n2)CC1 [Example 3]       79.02
 6  CCc1cnc(N2CCC(n3cc(COc4ccc(-n5cnnn5)cc4)cn3)CC2)nc1 [Example 18]       77.67
 7  CCc1cnc(N2CC[C@H](n3ncc(COc4ccc(-n5cnnn5)cc4F)n3)[C@@H](F)C2)nc1 (racemic) [Example 38]       85.32
 8  O=C(c1ccccn1)N1CCC(n2ncc(COc3ccc(-n4cnnn4)cc3F)n2)CC1 [Example 108]       41.78
 9  CC1CN(C(=O)OC(C)(C)C)CCC1n1ncc(COc2ccc(-n3cnnn3)nc2)n1 (centres unmarked) [Example 83]       63.14
10  Clc1cnc(N2CCC(n3ncc(COc4ccc(-n5cnnn5)cc4)n3)CC2)nc1 [Example 88]       60.96
11  Clc1cnc(N2CCC(n3ncc(COc4ccc(Cl)nc4)n3)CC2)nc1 [Example 98]       17.16
12  CCCCS(=O)(=O)N1CCC(n2ncc(COc3ccc(-n4cnnn4)nc3)n2)CC1 [Example 46]       79.78
13  CC(C)(C)OC(=O)N1CCC(n2cc(COc3ccc(-n4cnnn4)cc3F)cn2)CC1 [Example 7]       78.16
14  O=C(c1cnc(N2CCC(n3ncc(COc4ccc(-n5cnnn5)nc4)n3)CC2)nc1)N1CCOCC1 [Example 61]       43.59
15  CCOC(=O)c1cnc(N2CCC(n3ncc(COc4ccc(-n5cnnn5)cc4F)n3)CC2)nc1 [Example 106]       11.46
16  CCOC(=O)c1cnc(N2CCC(n3ncc(COc4ccc(-n5cnnn5)nc4)n3)CC2)nc1 [Example 60]       27.86
